Overview of recorded LC50 for various compounds
- assay.explanation: Toxicity against Artemia salina by lethality assay
- Type: organism-based
- study.conditions: in vivo, read-out: LD50 (the source's name)
All answers are understood in µg/mL, so give the number only.

Known LC50 results, listed for orientation:
# compound, LC50 (µg/mL)
data = [
    ("CC(=O)O[C@@H]1OCC2=CC[C@H]3[C@]4(C)CC[C@H]5C(C)(C)CCC[C@]5(C)[C@H]4C[C@H](OC(C)=O)[C@]3(C)[C@H]21 [DEOXOSCALARIN ACETATE]", 190),
    ("CC(=O)O[C@H]1C[C@@H]2[C@@]3(C)CCCC(C)(C)[C@@H]3CC[C@@]2(C)[C@@H]2CCc3cocc3[C@@]12C", 180),
    ("C/C(=C/C(=O)/C=C(/C)CCCc1ccoc1)CCCc1ccoc1", 0.45),
    ("C/C(=C\\C(=O)C/C(C)=C/CCc1ccoc1)CCCc1ccoc1 [FUROSPONGIN 2]", 0.12),
    ("CC(=O)O[C@H]1C[C@H]2[C@]3(C)CCCC(C)(C)[C@H]3CC[C@]2(C)[C@H]2CC=C3CO[C@H](O)[C@H]3[C@]12C", 200),
]

Challenge: Any idea what its LC50 is? The compound is "C/C(=C/C(=O)/C=C(\C)CCCc1ccoc1)CCCc1ccoc1"
Response given: 0.09

Challenge: Any idea what its LC50 is? The compound is "C/C(=C\C(=O)/C=C(\C)CCCc1ccoc1)CCCc1ccoc1"
Response given: 1.6

Data origin: ChEMBL document CHEMBL1147321
